Recorded values, source paper PMC5778891.

// pEC50 lookup, one value per entry
# tested-system: K2P2.1(TREK-1) (Mus musculus)
# Sequence (P97438 1-411 isoform P97438-2): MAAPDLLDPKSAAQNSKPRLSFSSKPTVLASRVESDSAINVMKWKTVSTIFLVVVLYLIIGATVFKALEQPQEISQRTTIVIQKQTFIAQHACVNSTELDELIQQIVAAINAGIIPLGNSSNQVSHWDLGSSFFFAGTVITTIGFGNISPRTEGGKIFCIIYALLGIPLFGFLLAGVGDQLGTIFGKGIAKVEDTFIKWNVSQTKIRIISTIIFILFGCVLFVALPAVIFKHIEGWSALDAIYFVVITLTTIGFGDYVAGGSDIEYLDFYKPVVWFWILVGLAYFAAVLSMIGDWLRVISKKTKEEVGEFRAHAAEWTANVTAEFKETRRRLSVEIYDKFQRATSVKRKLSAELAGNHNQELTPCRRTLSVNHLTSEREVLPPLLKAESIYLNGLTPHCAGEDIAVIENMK
# run-description: cell-based
pEC50: −log10 of the molar value.

>  <compound>
CS(=O)(=O)Nc1ccc(C(=O)NCc2ccc(Cl)cc2Cl)cc1 [ML335]

>  <pEC50>
5.28

$$$$
>  <compound>
Cc1cc(Cl)ccc1OCCNC(=O)c1cccs1 [ML402]

>  <pEC50>
5.23

$$$$
